Reference source: paper PMC12486301

- tested target: ENT1 (Homo sapiens)
- Sequence (Q99808 whole entry): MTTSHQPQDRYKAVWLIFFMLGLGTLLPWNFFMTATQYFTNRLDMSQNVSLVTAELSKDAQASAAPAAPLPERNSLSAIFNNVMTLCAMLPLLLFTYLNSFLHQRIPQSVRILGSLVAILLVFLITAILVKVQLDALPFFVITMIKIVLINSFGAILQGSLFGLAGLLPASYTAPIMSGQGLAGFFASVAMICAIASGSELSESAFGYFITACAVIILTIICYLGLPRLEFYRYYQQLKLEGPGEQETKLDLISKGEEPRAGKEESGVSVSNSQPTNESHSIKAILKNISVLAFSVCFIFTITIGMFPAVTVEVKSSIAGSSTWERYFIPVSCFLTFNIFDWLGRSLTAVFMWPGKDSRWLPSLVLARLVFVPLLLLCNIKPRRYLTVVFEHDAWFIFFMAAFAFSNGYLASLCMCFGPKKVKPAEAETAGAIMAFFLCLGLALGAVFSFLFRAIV
- method notes: Inhibition of [3H]uridine uptake into WT HeLa
- Type: cell-based
- protocol conditions: HeLa, read-out: ENT1 % Inhibition (±SD)
Counter-ions that a name gives are not always drawn.
readout kind: inhibition at 20 µM (%)
Write the number in % without appending the unit.

Here is how some compounds turned out for inhibition at 20 µM.
| compound | inhibition at 20 µM (%) |
| --- | --- |
| CCCCC1(CCCC)CN(c2ccccc2)c2cc(SC)c(OCC(=O)N[C@@H](C(=O)N[C@@H](CC)C(=O)O)c3ccc(O)cc3)cc2S(=O)(=O)N1 | 78.3 |
| CCOc1ccc2c(-c3cccc(F)c3)nn(CC(=O)N(C)c3ccc4nc(C)oc4c3)c(=O)c2c1 | 98 |
| COc1cc(OC)c2c(=O)[nH]c(-c3cc(C)c(OCCO)c(C)c3)nc2c1 | 88.1 |
| COc1cccc(-c2cc(F)c(Nc3ncccc3C(=O)O)c(F)c2)c1 | 86.8 |
| COc1cc2c(cc1OC)-c1c/c(=N\c3c(C)cc(C)cc3C)n(CCNC(N)=O)c(=O)n1CC2 | 98.2 |
| CCCOc1ccc(S(=O)(=O)N2CCN(CCO)CC2)cc1-c1nc2c(CCC)cn(CC)c2c(=O)[nH]1 [Mirodenafil (dihydrochloride), Mirodenafil] | 79.3 |
| COC(=O)C1=C(C)NC(C)=C(C(=O)OCCN(C)Cc2ccccc2)C1c1cccc([N+](=O)[O-])c1 (stereo not drawn) [Nicardipine (hydrochloride), Nicardipine] | 76.8 |
| Cc1c(OCC(F)(F)F)ccnc1C[S@@+]([O-])c1nc2ccccc2[nH]1 [(R)-Lansoprazole] | 73.6 |

Task item: Which measured inhibition at 20 µM value corresponds to CO[C@H]1C[C@@H]2CC[C@@H](C)[C@@](O)(O2)C(=O)C(=O)N2CCCC[C@H]2C(=O)O[C@H]([C@H](C)C[C@@H]2CC[C@@H](OCCO)[C@H](OC)C2)CC(=O)[C@H](C)/C=C(\C)[C@@H](O)[C@@H](OC)C(=O)[C@H](C)C[C@H](C)/C=C/C=C/C=C/1C ?
Reply: 92

Task item: Which measured inhibition at 20 µM value corresponds to COc1cc(C[C@H]2C(=O)OC[C@@H]2Cc2ccc(OC)c(OC)c2)ccc1O ?
Reply: 67.5

Task item: Which measured inhibition at 20 µM value corresponds to COC(=O)C1=C(C)NC(C)=C(C(=O)OC(C)C)C1c1cccc2nonc12 (stereo not drawn) ?
Reply: 92.7

Task item: Which measured inhibition at 20 µM value corresponds to COc1cc(/C=C/c2ccc(O)cc2)cc(OC)c1 ?
Reply: 54.7
